Below, each entry is listed with its recorded IC50.
test system: DU145; assay: MTT cytotoxicity assay, DU145 prostate cancer cells; assay type: cell-based; details: DU-145, Human prostate cancer, after 48 h of drug treatment, average of three individual experiments
Quick note: give the figure in µM, leave out the unit.

// known answers, use as guide
CNC(=O)c1cc(Oc2ccc(NC(=O)/C=C/c3ccc([N+](=O)[O-])cc3)cc2)ccn1 :: 28.7
CNC(=O)c1cc(Oc2ccc(NC(=O)/C=C/c3ccc(Cl)c(Cl)c3)cc2)ccn1 :: 23.3
CNC(=O)c1cc(Oc2ccc(NC(=O)/C=C/c3cc(OC)ccc3OC)cc2)ccn1 :: 29.5
CNC(=O)c1cc(Oc2ccc(NC(=O)/C=C/c3ccc(Cl)cc3)cc2)ccn1 :: 17.9
CNC(=O)c1cc(Oc2ccc(NC(=O)/C=C/c3cccs3)cc2)ccn1 :: 12.2

Exercise: Any idea what IC50 was measured for `CNC(=O)c1cc(Oc2ccc(NC(=O)/C=C/c3cc(OC)c(OC)c(OC)c3)cc2)ccn1` ?
Key: 21.1

###

Test system: HepG2
Assay: MTT cytotoxicity assay, HepG2 liver cancer cells
Type: cell-based, human
Conditions: after 48 h of drug treatment, average of three individual experiments
Excerpt: The (E)-4-(4-acrylamidophenoxy)-N-methylpicolinamide conjugates of general formulae 6a-6z and 7a-7aj have been evaluated for their cytotoxicity in selected human cancer cell lines i.e., lung (A549), prostate (DU-145), ovarian (SKOV3) and liver (HepG2) using MTT assay and the values obtained were compared to a standard drug sorafenib, with the concentration (treatment done at ranging from 10^−4 to 10^−8 M) of the compound produces to 50% inhibition of cell growth (IC50) as shown in Table 1. […]
// reported IC50 for each item listed
The answer is to be given in µM; state only the numeric part.

Some solved entries appear below for comparison.
CNC(=O)c1cc(Oc2ccc(NC(=O)Nc3ccc(Cl)c(C(F)(F)F)c3)cc2)ccn1 [Sorafenib, reference compound] :: 14.5
CNC(=O)c1cc(Oc2ccc(NC(=O)/C=C/c3ccc(Cl)c(Cl)c3)cc2)ccn1 :: 12.4

# next molecule below
Exercise: # get_value(readout= IC50, system= HepG2) for `CNC(=O)c1cc(Oc2ccc(NC(=O)/C=C/c3ccc(F)cc3F)cc2)ccn1`
Key: 13.1

###

system: HepG2; assay: MTT cytotoxicity assay, HepG2 liver cancer cells; type: cell-based, human; details: after 48 h of drug treatment, average of three individual experiments
IC50 values by entry
Write it as a number; the unit µM goes unstated.

CNC(=O)c1cc(Oc2ccc(NC(=O)/C=C/c3cccc(O)c3)cc2)ccn1 [Compound 6g] :: 10.9

Exercise: Suppose we examine the compound CNC(=O)c1cc(Oc2ccc(NC(=O)/C=C/c3ccc(C(F)(F)F)cc3)cc2)ccn1 [Compound 6t] ; what IC50 value has been reported?
Key: 8.2

Exercise: Any idea what its IC50 is? The compound is CNC(=O)c1cc(Oc2ccc(NC(=O)/C=C/c3cccc(OC)c3OC)cc2)ccn1 [Compound 6c]
Key: 12.4

Exercise: Bench note: what IC50 did CNC(=O)c1cc(Oc2ccc(NC(=O)/C=C/c3ccc([N+](=O)[O-])cc3)cc2)ccn1 [Compound 6z] show?
Key: 12.2

###

In this section we review reported IC50 values for a set of molecules.
test system: HepG2; assay: MTT cytotoxicity assay, HepG2 liver cancer cells; type: cell-based, human; conditions: after 48 h of drug treatment, average of three individual experiments
The answer is to be given in µM; state only the numeric part.

Example cases with answers are listed next.
CNC(=O)c1cc(Oc2ccc(NC(=O)/C=C/c3ccc(F)c(F)c3)cc2)ccn1 :: 11.1
CNC(=O)c1cc(Oc2ccc(NC(=O)/C=C/c3ccc(OC)cc3)cc2)ccn1 :: 9.5

Exercise: // lookup IC50 for `CNC(=O)c1cc(Oc2ccc(NC(=O)/C=C/c3ccc(F)cc3)cc2)ccn1`
Key: 12.5

Exercise: Give the measured IC50 of `CNC(=O)c1cc(Oc2ccc(NC(=O)/C=C/c3cccs3)cc2)ccn1` .
Key: 13.2
